study-system: T1, HER2 on the surface of N87 gastric cancer cells (human, UniProt P04626 23-1255)
T1 construct: whole, on cells; also called cell surface HER2
assay-summary: flow cytometry on N87 cells, 0.5 nM scFv detected with AL1-RFP
result-type: MFI
Could you respond with only the numeric value?

q: Bench note: what MFI did 29TYL#1 source scFv (scFv) DIQMTQSPSSLSASVGDRVTITCKSNQNLLLSNGWTFLNWYQQKPGKAPKLLISRISDLYSGVPSRFSGSGSGTDFTLTISSLQPEDFATYYCFQASDFPYTFGQGTKVEIKREVQLVESGGGLVQPGGSLRLSCKASGYTFSTGSMHWVRQAPGKGLEWVAHINPHFGLTLYADSVKGRFTISADTSKNTAYLQMNSLRAEDTAVYYCAGSGFDYWGQGTLVTVSSASAAA show?
a: 491

q: What does the record list as MFI for 35WYK-9 source scFv (scFv) DIQMTQSPSSLSASVGDRVTITCKSNQNLLLSNGRTFLHWYQQKPGKAPKLLIFDVSNLYSGAPSRFSGSGSGTDFTLTISSLQPDDFATYYCSQTSRFPWTFGQGTKVEIKREVQLVESGGGLVQPGGSLRLSCKASGYTFSHWGMHWVRQAPGKGLEWVAGIYPYFGNTYYADSVKGRFTISADTSKNTAYLQMNSLRAEDTAVYYCARGLLDYWGQGTLVTVSSASAAA ?
a: 265

q: I would be grateful if you could share the reported MFI for 30CHS-12 source scFv (scFv) DIQMTQSPSSLSASVGDRVTITCKSNQNLLDSGNQGTFLNWYQQKPGKAPKLLIFGTSHLYSGVPSRFSGSGSGTDFTLTISSLQPEDFATYYCSQSTDLPFTFGQGTKVEIKREVQLVESGGGLVQPGGSLRLSCAASGFTISDYWIHWVRQAPGKGLEWVAGINPYYGVTVYADSVKGRFTISADTSKNTAYLQMNSLRAEDTAVYYCARGGVLDYWGQGTLVTVSSASAAA .
a: 198

q: Which value of MFI has been reported for 31YCM#5 source scFv (scFv) DIQMTQSPSSLSASVGDRVTITCKSNQNLLDSHGWTYLHWYQQKPGKAPKLLIYDASNLYSGVPSRFSGSGSGTDFTLTISSLQPEDFATYYCSQSYRLPYTFGQGTKVEIKREVQLVESGGGLVQPGGSLRLSCKASGYTFGGSYMHWVRQAPGKGLEWVARIYPHYGYTYYADSVKGRFTISADTSKNTAYLQMNSLRAEDTAVYYCARGDDHFDYWGQGTLVTVSSASAAA in the records?
a: 165
